Exercise: state measured pERK EC50 (nM) for each of the binders provided.
- target.of.assay: T1, human MIC-1 receptor (hGFRAL, GDNF family receptor alpha like), full length (human, UniProt Q6UXV0 19-394)
- T1 sequence (looked up): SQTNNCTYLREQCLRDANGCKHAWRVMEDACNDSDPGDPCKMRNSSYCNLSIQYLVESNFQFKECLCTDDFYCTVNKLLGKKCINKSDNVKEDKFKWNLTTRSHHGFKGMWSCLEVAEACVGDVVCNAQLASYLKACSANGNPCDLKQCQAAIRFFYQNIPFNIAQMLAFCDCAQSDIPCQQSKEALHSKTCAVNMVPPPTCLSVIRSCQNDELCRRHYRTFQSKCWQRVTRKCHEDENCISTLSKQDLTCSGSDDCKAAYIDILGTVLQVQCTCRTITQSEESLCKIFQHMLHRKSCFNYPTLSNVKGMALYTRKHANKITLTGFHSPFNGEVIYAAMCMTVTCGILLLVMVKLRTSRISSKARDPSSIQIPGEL
- assay.name: cell-based or functional assay
Just the number please, in nM, no unit attached.

Give its pERK EC50 (nM) value. Item: …-MIC-1-Δ1-3 (ligand) SEPATSGSETPGTSTEPSEGSAPGGDHCPLGPGRCCRLHTVRASLEDLGWADWVLSPREVQVTMCIGACPSQFRAANMHAQIKTSLHRLKPDTVPAPCCVPASYNPMVLIQKTDTGVSLQTYDDLLAKDCHCI
0.7

So what's the measured pERK EC50 (nM) for this one? AEEAES-MIC-1-Δ1-3 (ligand) AEEAESGDHCPLGPGRCCRLHTVRASLEDLGWADWVLSPREVQVTMCIGACPSQFRAANMHAQIKTSLHRLKPDTVPAPCCVPASYNPMVLIQKTDTGVSLQTYDDLLAKDCHCI
0.3

Requested read-out: pERK EC50 (nM). Entry: SEPATSGSETPGTSESATPESGPGTSTEPS-MIC-1-Δ1-3 (ligand) SEPATSGSETPGTSESATPESGPGTSTEPSGDHCPLGPGRCCRLHTVRASLEDLGWADWVLSPREVQVTMCIGACPSQFRAANMHAQIKTSLHRLKPDTVPAPCCVPASYNPMVLIQKTDTGVSLQTYDDLLAKDCHCI
0.4

What does the data say about its pERK EC50 (nM)? Entry: AAPEDEETPEQEGSGSGSGSGS-MIC-1-Δ1-3 (ligand) AAPEDEETPEQEGSGSGSGSGSGDHCPLGPGRCCRLHTVRASLEDLGWADWVLSPREVQVTMCIGACPSQFRAANMHAQIKTSLHRLKPDTVPAPCCVPASYNPMVLIQKTDTGVSLQTYDDLLAKDCHCI
0.5
